Molecular target: indoleamine 2, 3-dioxygenase (IDO1) (Homo sapiens)
Assay: IDO1 HeLa RapidFire MS assay (kynurenine detection by mass spectrometry)
Type: cell-based
Parameters: to induce the expression of indoleamine 2, 3-dioxygenase (IDO1)
Details: HeLa cells, pIC50, read-out: IDO1_HELA_PXC50 (converted)
Measurement kind: IC50 (nM)

Study these solved cases before continuing.
COCc1ccc(Nc2cc([C@H](C)CC(=O)O)ccc2N(CC(C)C)C2CCOCC2)cn1 [Example 31] | 20
CC(C)CN(c1ccc(C(C)CC(=O)O)cc1NCc1ccc(F)c(F)c1)C1CCCCC1 (stereo not shown) [example 162] | 1000
CC(C)CN(c1ccc(C2CC2C(=O)O)cc1Nc1nc(C(F)(F)F)ns1)C1CCCCC1 (single isomer, unassigned) [Example 105] | 6.31
CC(C)CN(c1ccc(C(C)CC(=O)O)cc1NC1=NC(=O)[C@H](C)N1)C1CCCCC1 (stereo partly shown) [example 164] | 631
CC(C)CN(c1ccc(C(C)CC(=O)O)cc1NC1=NC(=O)[C@@H](c2ccccc2)N1)C1CCCCC1 (stereo partly shown) [example 155] | 1000

1 = CC(C)CN(c1ccc([C@H](C)CC(=O)O)cc1NC1CCCC(C)(C)C1)C1CCCCC1 (stereo partly shown) [example 183]
2 = CC(C)CN(c1ccc(C(C)CC(=O)O)cc1Nc1nc(Cl)ns1)C1CCOCC1 (stereo not shown) [Example 21]
Pick the one with the larger IC50: 1 vs 2 Output the label that corresponds to your choice.
1
(1: 398 nM, 2: 31.6 nM)

====

Biological target: indoleamine 2, 3-dioxygenase (IDO1) (Homo sapiens, UniProt P14902)
Sequence (P14902 whole entry): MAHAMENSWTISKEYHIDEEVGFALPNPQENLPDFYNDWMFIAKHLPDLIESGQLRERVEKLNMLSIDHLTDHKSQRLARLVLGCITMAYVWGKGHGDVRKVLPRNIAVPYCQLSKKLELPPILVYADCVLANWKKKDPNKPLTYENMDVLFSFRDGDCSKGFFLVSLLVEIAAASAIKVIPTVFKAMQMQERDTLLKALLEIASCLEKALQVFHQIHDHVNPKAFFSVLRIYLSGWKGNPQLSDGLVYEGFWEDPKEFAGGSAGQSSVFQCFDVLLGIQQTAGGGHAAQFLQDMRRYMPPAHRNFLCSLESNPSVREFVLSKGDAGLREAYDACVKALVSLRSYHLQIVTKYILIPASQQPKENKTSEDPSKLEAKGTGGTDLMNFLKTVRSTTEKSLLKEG
Assay: IDO1 PBMC RapidFire MS assay (kynurenine detection by mass spectrometry)
Assay type: cell-based
Design: to induce the expression of indoleamine 2, 3-dioxygenase (IDO1); host or cells: human PBMC stimulated with IFN-gamma and LPS
Settings: human PBMC stimulated with IFN-γ and LPS, 2 days, pIC50, read-out: PBMC PXC50 (converted)
Measurement kind: IC50 (nM)

CO[C@H]1CC[C@@H](N(CC(C)C)c2ccc([C@H](C)CC(=O)O)cc2Nc2n[nH]c(Cl)n2)CC1 | 2
CC(C)CN(c1ccc([C@H](C)Cc2nnn[nH]2)cc1Nc1nc(Cl)ns1)C1CCOCC1 | 2
CC(C)CN(c1ccc([C@H](C)CC(=O)O)cc1Nc1ccc(C(F)(F)F)nn1)C1CCOCC1 | 2

====

Biological target: UniProt P14902
Experiment: IDO1 PBMC RapidFire MS assay (kynurenine detection by mass spectrometry)
Format: cell-based
Set-up: to induce the expression of indoleamine 2, 3-dioxygenase (IDO1); host or cells: human PBMC stimulated with IFN-gamma and LPS
Conditions: human PBMC stimulated with IFN-γ and LPS, 2 days, pIC50, read-out: PBMC PXC50 (converted)
Measurement kind: IC50 (nM)

Study these solved cases before continuing.
CC(C)CN(c1ccc([C@H](C)CC(=O)O)cc1Nc1nc(C#N)c[nH]1)C1CCOCC1 [example 228] | 15.8
CC(C)CN(c1ccc(C(C)CC(=O)O)cc1Nc1nnc(C(=O)NC(C)C)s1)C1CCCCC1 (stereo not shown) [example 245] | 398
CO[C@H]1CC[C@@H](N(CC(C)C)c2ccc([C@H](C)CC(=O)O)cc2Nc2nc(C(F)(F)F)n[nH]2)CC1 [Example 51] | 1.58

I = CC(C)CN(c1ccc(C(C)CC(=O)O)cc1NCc1ccc(F)c(F)c1)C1CCCCC1 (stereo not shown) [example 162]
II = CC(C)CN(c1ccc(C(C)CC(=O)O)cc1NC1=N[C@@H](C(F)(F)F)CS1)C1CCCCC1 (stereo partly shown) [example 154]
Between item I and item II , which reported IC50 is smaller? Output the label that corresponds to your choice.
II
(II: 20 nM, I: 398 nM)

P = CC(C)CN(c1ccc([C@H](C)CC(=O)O)cc1Nc1ccc(C(N)=O)nn1)C1CCOCC1 [example 253]
Q = CC(C)CN(c1ccc([C@H](C)CC(=O)O)cc1Nc1n[nH]c(C(N)=O)n1)C1CCOCC1 [example 227]
Pick the one with the larger IC50: P vs Q Output the label that corresponds to your choice.
Q

====

Biological target: indoleamine 2, 3-dioxygenase (IDO1) (Homo sapiens)
Assay: IDO1 PBMC RapidFire MS assay (kynurenine detection by mass spectrometry)
Assay type: cell-based
Set-up: to induce the expression of indoleamine 2, 3-dioxygenase (IDO1); host or cells: human PBMC stimulated with IFN-gamma and LPS
Conditions: human PBMC stimulated with IFN-γ and LPS, 2 days, pIC50, read-out: PBMC PXC50 (converted)
Measurement kind: IC50 (nM)

Study these solved cases before continuing.
CC(C)CN(c1ccc(C(C)(C)CC(=O)O)cc1Nc1nc(Cl)ns1)C1CCCCC1 [Example 2] | 1.58
CC(C)CN(c1ccc(C(C)OCC(=O)O)cc1Nc1ccc(C#N)cn1)C1CCCCC1 (centres unmarked) [Example 113] | 5.01
CC(C)CN(c1ccc([C@H](C)CC(=O)O)cc1Nc1nnc(C(C)C)[nH]1)C1CCOCC1 [example 212] | 63.1
CC(C)CN(c1ccc([C@H](C)CC(=O)O)cc1Nc1ccc(C#N)cn1)C1CCCCC1 [Example 73] | 0.794
CO[C@H]1CC[C@H](N(CC(C)C)c2ccc([C@H](C)CC(=O)O)cc2Nc2ccc(C#N)cn2)CC1 [Example 56] | 3.98
CC(C)CN(CC(C)C)c1ccc(-c2ccccc2C(=O)O)cc1Nc1nc(Cl)ns1 [example 294] | 20
CC(C)CN(CC(C)C)c1ccc(C(C)CC(=O)O)cc1Nc1nnn(C)n1 (centres unmarked) [example 251] | 2000
CC(C)CN(c1ccc([C@H](C)CC(=O)O)cc1Nc1cccc(C(F)(F)F)n1)C1CCCCC1 [example 172] | 39.8

I = CC(C)CN(c1ccc([C@H](C)CC(=O)O)cc1Nc1n[nH]c(Cl)n1)C1CCOCC1 [Example 34]
II = CC(C)CN(c1ccc([C@H](C)CC(=O)O)cc1Nc1cnc(Cl)nc1)C1CCOCC1 [Example 10]
Pick the one with the larger IC50: I vs II Output the label that corresponds to your choice.
I
(I: 6.31 nM, II: 0.794 nM)

====

Molecular target: indoleamine 2, 3-dioxygenase (IDO1) (Homo sapiens)
Test: IDO1 HeLa RapidFire MS assay (kynurenine detection by mass spectrometry)
Format: cell-based
Parameters: to induce the expression of indoleamine 2, 3-dioxygenase (IDO1)
Conditions: HeLa cells, pIC50, read-out: IDO1_HELA_PXC50 (converted)
Measurement kind: IC50 (µM)

Study these solved cases before continuing.
CC(C)CN(CC(C)C)c1ccc(C(C)CC(=O)O)cc1Nc1c(Nc2ccccc2)c(=O)c1=O (centres unmarked) [example 124] | 12.6
CC(C)CN(c1ccc(-c2cn(C)nc2C(=O)O)cc1Nc1nc2ccccc2o1)C1CCCCC1 [example 176] | 3.16
CC(C)CN(CC(C)C)c1ccc(C(C)CC(=O)O)cc1Nc1nnc(CC(N)=O)s1 (centres unmarked) [example 195] | 3.16

P = CC(C)CN(c1ccc(C(C)CC(=O)O)cc1NC1CCN(C)CC1)C1CCCCC1 (centres unmarked) [example 140]
Q = CC(C)CN(c1ccc([C@H](C)CC(=O)O)cc1Nc1nc(C(F)(F)F)ns1)C1CCN(S(C)(=O)=O)CC1 [Example 71]
R = CC(C)CN(c1ccc([C@H](C)CC(=O)O)cc1Nc1ccc(Cl)cn1)C1CCCCC1 [Example 75]
S = CC(C)CN(c1ccc(-c2ccccc2C(=O)O)cc1Nc1nc(C(=O)O)ns1)C1CCCCC1 [example 275]
Ascending by IC50, please. Returns: the labels listed in the requested order.
R, Q, P, S

P = CC(C)CN(c1ccc([C@H](C)CC(=O)O)cc1Nc1cccc(Cl)n1)C1CCCCC1 [example 169]
Q = CC(C)CN(c1ccc(C(C)CC(=O)O)cc1NC1CCNC1)C1CCCCC1 (centres unmarked) [example 136]
R = CC(C)CN(c1ccc([C@H](C)CC(=O)O)cc1NC1CCC(C)(C)CC1)C1CCCCC1 [example 182]
S = CC(C)CN(CC(C)C)c1ccc(C(C)CC(=O)O)cc1Nc1cnc(CO)s1 (centres unmarked) [example 207]
T = CC(C)CN(c1ccc(C(C)OCC(=O)O)cc1Nc1nc(Cl)ns1)C1CCCCC1 (centres unmarked) [example 171]
Ascending by IC50, please. Returns: the labels listed in the requested order.
P, T, S, Q, R

====

Biological target: indoleamine 2, 3-dioxygenase (IDO1) (Homo sapiens)
Assay: IDO1 HeLa RapidFire MS assay (kynurenine detection by mass spectrometry)
Format: cell-based
Set-up: to induce the expression of indoleamine 2, 3-dioxygenase (IDO1)
Conditions: HeLa cells, pIC50, read-out: IDO1_HELA_PXC50 (converted)
Measurement kind: IC50 (nM)

CC[C@H](CC(=O)O)c1ccc(N(CC(C)C)C2CCCCC2)c(Nc2nc(Cl)ns2)c1 | 5.01

A = CC(C)CN(CC(C)C)c1ccc(C(C)CC(=O)O)cc1Nc1ccsc1 (stereo not drawn)
B = CC(C)CN(CC(C)C)c1ccc(C(C)CC(=O)O)cc1Nc1nc(-c2ccccc2)ns1 (stereo not drawn)
Between item A and item B , which reported IC50 is smaller? Output the label that corresponds to your choice.
A
(A: 316 nM, B: 3160 nM)
